tested on: influenza A virus-induced pulmonary fibrosis model (FM1 strain of influenza A (H1N1) virus); test: Influenza A virus-induced pulmonary fibrosis model; assay type: in vivo, C57BL/6 mice; settings: serum; influenza A (H1N1) FM1 + bleomycin; 120 mg/kg/d intragastric, 14 days, from two weeks after model
measured-endpoint: IL-6 (pg/mL)

compound	measured-endpoint	meas-value
O=c1[nH]cnc2[nH]cnc12 [Hypoxanthine analogue A, reference compound]	IL-6	450.9
COC(=O)c1ccc2c(c1)NC(=O)/C2=C(\Nc1ccc(N(C)C(=O)CN2CCN(C)CC2)cc1)c1ccccc1 [Nintedanib, reference compound]	IL-6	349.1
COc1ncnc2c1ncn2C(C)C [Compound 7]	IL-6	65.3
CC(C)Oc1ncnc2ncn(C(C)C)c12 [Compound 4]	IL-6	65.1
CCCOc1ncnc2c1ncn2C(C)C [Compound 9]	IL-6	65.8
CC(C)Oc1ncnc2c1ncn2C [Hypoxanthine analogue B, reference compound]	IL-6	422.7
CC(C)Oc1ncnc2nc[nH]c12 [Compound 5]	IL-6	65.6
CC(C)Oc1ncnc2c1N(C(C)C)CN2C(C)C [Compound 10]	IL-6	64.9
CC(C)n1cnc2nc[nH]c(=O)c21 [Compound 6]	IL-6	66.1
CCC(=O)Oc1ncnc2c1ncn2C(C)C [Compound 12]	IL-6	64.7
CC(=O)Oc1ncnc2c1ncn2C(C)C [Compound 11]	IL-6	64.6
CCOc1ncnc2c1ncn2C(C)C [Compound 8]	IL-6	66.0
CC(C)n1cnc2c(=O)[nH]cnc21 [Compound 2]	IL-6	62.7
CC(C)Oc1ncnc2[nH]cnc12 [Compound 1]	IL-6	63.9
CC(C)Oc1ncnc2c1ncn2C(C)C [Compound 3]	IL-6	62.9

* * *

system: bleomycin-induced pulmonary fibrosis model; assay: Comparison with comparative drugs: bleomycin-induced model, hydroxyproline and TGF-β; assay type: in vivo, C57BL/6 mice; settings: 120 mg/kg/d intragastric, twice every day, 14 days, from two weeks after model; Day 15
measured-endpoint: TGF-β in bronchoalveolar lavage fluids (µg/L)

molecule	meas-value
COc1ncnc2c1ncn2C(C)C [Compound 7]	4.02
CC(C)n1cnc2c(ncn2C(C)C)c1=O	6.35
CCC(=O)Oc1ncnc2c1ncn2C(C)C	4.06

* * *

tested on: Streptococcus pneumoniae-induced pulmonary fibrosis model; assay: Streptococcus pneumoniae-induced pulmonary fibrosis model; type: in vivo, C57BL/6 mice; conditions: Streptococcus pneumoniae + bleomycin; blood, Day 15; 120 mg/kg/d intragastric, 3 times every day, 14 days, from one week after model
Listed molecules paired with reported Neutrophil

molecule	Neutrophil
O=c1[nH]cnc2[nH]cnc12 [Hypoxanthine analogue A, reference compound]	89.99 10^9/L
CC(C)Oc1ncnc2c1N(C(C)C)CN2C(C)C	1.99 10^9/L
CCC(=O)Oc1ncnc2c1ncn2C(C)C	1.97 10^9/L
CC(C)Oc1ncnc2c1ncn2C [Hypoxanthine analogue B, reference compound]	89.86 10^9/L
CC(=O)Oc1ncnc2c1ncn2C(C)C	1.81 10^9/L
CC(C)Oc1ncnc2nc[nH]c12	1.82 10^9/L
CCOc1ncnc2c1ncn2C(C)C	1.94 10^9/L
CC(C)Oc1ncnc2[nH]cnc12	2.00 10^9/L
CC(C)Oc1ncnc2c1ncn2C(C)C	1.60 10^9/L
CC(C)n1cnc2c(=O)[nH]cnc21	1.83 10^9/L
CC(C)n1cnc2nc[nH]c(=O)c21	1.88 10^9/L
COC(=O)c1ccc2c(c1)NC(=O)/C2=C(\Nc1ccc(N(C)C(=O)CN2CCN(C)CC2)cc1)c1ccccc1 [Nintedanib, reference compound]	78.94 10^9/L
CCCOc1ncnc2c1ncn2C(C)C	1.89 10^9/L
CC(C)Oc1ncnc2ncn(C(C)C)c12	1.51 10^9/L
